assay: Cytotoxicity index, ratio of EC50 for mouse J774 cells to EC50 for chloroquine-, mefloquine, pyrimethamine-,atovaquone-resistant ring stage Plasmodium falciparum TM90-C2B; assay type: cell-based; conditions: read-out: Ratio EC50
parameter-measured: selectivity ratio

- CCCCc1cc2c(=O)c(-c3ccc(OC(F)(F)F)cc3)c(C)[nH]c2cc1OCCOc1ccccc1: ≥ 100
- CCCCc1cc2c(=O)c(-c3ccc(C)cc3C)c(C)[nH]c2cc1OCCOc1ccccc1: ≥ 100
- CCCCc1cc2c(=O)c(-c3ccncc3)c(C)[nH]c2cc1OCCOc1ccccc1: ≥ 100

These measurements were taken from ChEMBL document CHEMBL1938249.
